Values from PubChem BioAssay (NCATS)

Measured on: Cytochrome P450 2D6 (Homo sapiens) (UniProt P10635)
Sequence (P10635 whole entry, looked up): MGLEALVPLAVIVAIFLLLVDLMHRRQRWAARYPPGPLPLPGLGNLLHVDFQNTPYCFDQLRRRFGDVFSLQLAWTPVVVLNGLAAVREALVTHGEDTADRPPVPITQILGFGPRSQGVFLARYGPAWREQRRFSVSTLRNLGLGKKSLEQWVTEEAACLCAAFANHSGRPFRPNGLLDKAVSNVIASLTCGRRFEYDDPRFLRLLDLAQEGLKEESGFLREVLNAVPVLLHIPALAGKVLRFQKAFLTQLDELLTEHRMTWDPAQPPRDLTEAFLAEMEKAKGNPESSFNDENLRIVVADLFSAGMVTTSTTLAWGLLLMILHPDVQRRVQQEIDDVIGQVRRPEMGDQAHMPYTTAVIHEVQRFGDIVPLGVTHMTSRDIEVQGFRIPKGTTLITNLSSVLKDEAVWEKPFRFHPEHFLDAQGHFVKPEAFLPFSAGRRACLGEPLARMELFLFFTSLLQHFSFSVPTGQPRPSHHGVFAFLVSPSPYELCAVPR
Assay: Cytochrome P450 family 2 subfamily D member 6 (CYP2D6) small molecule antagonists: luciferase biochemical (cell-free) qHTS assay (AID 1645840); also: nearly all actives have a fitted effect of over 55% in size
Details: P450-Glo CYP2D6 enzyme, luciferin luminescence, 1 h; series mostly up to 57.4 µM
Records with an inconclusive call do not appear. Calls of active or inactive are those of the source. Calls follow the shape of the dose curve; as a rule, active = well fitted inhibition curve with a large enough effect in the repeat runs; inconclusive = weak or mixed curves; inactive = flat fitted curve, though single readings scatter.
Outcome field: choose from 1 = active, 0 = inactive

Example entries begin here.
                                 compound  label_value
0            NC(N)=NC(=O)c1nc(Cl)c(N)nc1N            0
1   COc1ccc(CCN2CCN(CCCc3ccccc3)CC2)cc1OC            1
2  Clc1ccc(Nc2nnc(Cc3ccncc3)c3ccccc23)cc1            1

# lookup: test call for CC(c1cc2ccccc2s1)N(O)C(N)=O (stereo unspecified)
0

# lookup: test call for Cc1cnc(NC(=O)C2=C(O)c3ccccc3S(=O)(=O)N2C)s1
0

# lookup: test call for CC(C)NCC(O)COc1ccc(COCCOC(C)C)cc1 (stereo unspecified)
0
